# experimental system: Solute carrier family 2, facilitated glucose transporter member 1 (Homo sapiens)
# protocol notes: ST_JUDE_LEISH: Cytotoxicity at 2uM final concentration against transgenic Leishmania Mexicana promastigotes LmGLUT1 that are glucose transport deficient and complemented with the human glucose transporter GLUT1. Activity is measured by DNA content using SYBR green in vitro
# Format: functional
readout: inhibition (%)
# value in %; strip the unit string

>  <compound>
Oc1ccc(CCNc2nc(NCc3ccccc3Oc3ccc(C(F)(F)F)cc3)nc(N3CCNCC3)n2)cc1

>  <inhibition [%]>
-0.98

$$$$
>  <compound>
c1ccc(CN2CCC(NCc3ccccc3-c3ccc(CNC4CCCC4)cc3)CC2)cc1

>  <inhibition [%]>
4.61

$$$$
>  <compound>
Cc1ncc(CN2CCC(C(=O)Nc3ccc(-c4nc5ccccc5o4)cc3)CC2)s1

>  <inhibition [%]>
-2.13

$$$$
>  <compound>
O=C(Nc1cc(Cl)ccc1O)c1cc(-c2ccccc2O)no1

>  <inhibition [%]>
-2.41

$$$$
>  <compound>
COc1ccc2ccccc2c1CCCCN1CCN(CC(c2ccc(F)cc2)N2CCC(N3CCCC3)CC2)CC1 (stereo unspecified)

>  <inhibition [%]>
3.25

$$$$
>  <compound>
O=C(/C=C/c1ccc(Cl)c(Cl)c1)NCCCCCN1CCC(NC(=O)Nc2ccc(Cl)cc2Cl)CC1

>  <inhibition [%]>
-0.07

$$$$
>  <compound>
COc1c(CCNCCCCNCCc2cc(Cl)c3ccccc3c2OC)cc(Cl)c2ccccc12

>  <inhibition [%]>
102

$$$$
>  <compound>
N=C(N)Nc1nc(-c2cccc(NC(=O)NCc3ccc(OC(F)(F)F)cc3)c2)cs1

>  <inhibition [%]>
1.51

$$$$

Inquiry: Would you kindly share the measured inhibition for O=C(Nc1nccs1)c1sc2ccccc2c1O ?
Reply text: 3.63

Inquiry: # input compound: C=CCN(c1nc(NC)nc(NCc2c(OC)cccc2OC)n1)C1CCCC1 ; wanted: its inhibition
Reply text: 5.12

Inquiry: I have this compound here, CC(C)NCc1cccc(-c2cccc(NC(=O)c3ccc(C#N)cc3)c2)c1 , and I need its recorded inhibition.
Reply text: -1.2

Inquiry: Which inhibition value is on record for CCCC(CNCc1ccccc1)CNc1cc(=O)c2ccccc2[nH]1 (stereo unspecified) ?
Reply text: -0.08

---

# maps each entry to its inhibition
# experimental system: Glucose transporter (Leishmania mexicana) (UniProt O61059)
# protocol notes: ST_JUDE_LEISH: Cytotoxicity at 2uM final concentration against transgenic Leishmania Mexicana promastigotes LmGT2 that are glucose transport deficient and complemented with the L. Mexicana glucose transporter 2. Activity is measured by DNA content using SYBR green in vitro
# Assay type: functional
State just the number; it will be interpreted in %.

>  <compound>
O=C(Cc1ccccc1)NC(CCN1CCC(NC(=O)c2ccc(Cl)cc2)CC1)c1ccc(Cl)c(Cl)c1 (centres undefined)

>  <scale unit>
%

>  <inhibition>
1.02

$$$$
>  <compound>
COc1cc2nc(N3CCC(CNC(=O)c4ccc(-c5cccc(C#N)c5)cc4)CC3)nc(N)c2cc1OC

>  <scale unit>
%

>  <inhibition>
2.21

$$$$
>  <compound>
CC(C)(C)c1ccccc1SC1=C(O)CC2(CCNCC2)OC1=O

>  <scale unit>
%

>  <inhibition>
1.29

$$$$
>  <compound>
Cc1nnc2c(NC(=O)NC3CCCC3)cc3ccc(-c4cccc(CN(C)C)c4)cc3n12

>  <scale unit>
%

>  <inhibition>
0.64

$$$$
>  <compound>
COc1ccc(Oc2ccc(-c3c(C)[nH]c(C)c(Cl)c3=O)cc2)cc1

>  <scale unit>
%

>  <inhibition>
2.72

$$$$

Inquiry: API: value(readout= inhibition, system= Glucose transporter (Leishmania mexicana) (UniProt O61059), query= Cc1cc(C)c(NC(=O)NC2CCN(CCCCCNC(=O)/C=C/c3ccc(Cl)c(Cl)c3)CC2)c(C)c1 )
Reply text: 3.81

Inquiry: // map O=C(/C=C/c1ccc(C(F)(F)F)cc1)NCCCCCN1CCCN(C(=O)Nc2ccc(Cl)cc2)CC1 to recorded inhibition (system: Glucose transporter (Leishmania mexicana) (UniProt O61059))
Reply text: 1.84

Inquiry: Write down the reported inhibition of CCN(CC)/C(=N/C(=N)NCc1ccc(Cl)cc1)NCCCCCCN/C(=N\C(=N)NCc1ccc(Cl)cc1)N(CC)CC , test system: Glucose transporter (Leishmania mexicana) (UniProt O61059).
Reply text: 8.12

Inquiry: Query inhibition on Glucose transporter (Leishmania mexicana) (UniProt O61059) for CCCCc1cc(N2CCC(NC(C)=O)C2)nc(Nc2ccc(C)cc2)n1 (centres undefined)
Reply text: 5.78

Inquiry: What reported inhibition corresponds to Cn1cc(C2CCN(CCCCNC(=O)c3sc(-c4ccc(C(F)(F)F)cc4)nc3CO)CC2)c2ccccc21 on Glucose transporter (Leishmania mexicana) (UniProt O61059)?
Reply text: -0.2

Inquiry: Param readout= inhibition; system= Glucose transporter (Leishmania mexicana) (UniProt O61059); entry= Oc1ccc(Cl)cc1CN1CCC2(CCCN(CC3CCC3)C2)C1 (centres undefined) ; returns value.
Reply text: 1.23

Inquiry: Observed inhibition on Glucose transporter (Leishmania mexicana) (UniProt O61059) for NC(=O)c1cccc(Nc2nccc(Nc3ccc(Oc4ccc5ccccc5c4)cc3)n2)c1 , please.
Reply text: 0.97

Inquiry: Requested read-out inhibition, target or system Glucose transporter (Leishmania mexicana) (UniProt O61059), entry CCCCCCN1CCCN(Cc2ccc(C(=O)Nc3ccc(Cl)cc3)cc2)CC1
Reply text: 12.5
